# Test system: Bacillus subtilis
# assayRemarks: Antibacterial activity against Bacillus subtilis ATCC 23858 at < 100 ug/mL by agar dilution method
# Type: functional, organism-based
Active and inactive are the calls of the source. The calls are words filed in the database; no cut-off is given here.
endpointName: Activity

smiles=Cc1c(N2C(=O)C(Cl)=C(NCCc3ccccc3)C2=O)c(=O)n(-c2ccccc2)n1C endpointname=Activity experimentalvalue=inactive
smiles=COc1cc(NC2=C(Cl)C(=O)N(c3c(C)n(C)n(-c4ccccc4)c3=O)C2=O)cc(OC)c1 endpointname=Activity experimentalvalue=inactive
smiles=Cc1c(N2C(=O)C(Cl)=C(Nc3ccc(Cl)c([N+](=O)[O-])c3)C2=O)c(=O)n(-c2ccccc2)n1C endpointname=Activity experimentalvalue=inactive
smiles=Cc1c(N2C(=O)C(Cl)=C(N3CCCCC3)C2=O)c(=O)n(-c2ccccc2)n1C endpointname=Activity experimentalvalue=inactive
smiles=Cc1c(N2C(=O)C(Cl)=C(Cl)C2=O)c(=O)n(-c2ccccc2)n1C endpointname=Activity experimentalvalue=inactive
smiles=Cc1c(N2C(=O)C(Cl)=C(Nc3cccc([N+](=O)[O-])c3)C2=O)c(=O)n(-c2ccccc2)n1C endpointname=Activity experimentalvalue=inactive
smiles=COc1ccc(NC2=C(Cl)C(=O)N(c3c(C)n(C)n(-c4ccccc4)c3=O)C2=O)cc1 endpointname=Activity experimentalvalue=inactive
smiles=COc1cccc(NC2=C(Cl)C(=O)N(c3c(C)n(C)n(-c4ccccc4)c3=O)C2=O)c1 endpointname=Activity experimentalvalue=inactive
smiles=Cc1c(N2C(=O)C(Cl)=C(Nc3ccc(C(=O)O)cc3)C2=O)c(=O)n(-c2ccccc2)n1C endpointname=Activity experimentalvalue=inactive

Data credit: ChEMBL document CHEMBL1275265
